molecular target: KRAS-WT (Homo sapiens); test: SOS-catalyzed nucleotide exchange assay (Procedure A, TR-FRET), KRAS-WT; assay type: biochemical; conditions: nucleotide exchange, read-out: KRAS WT GNE IC50
Sequence (P01116 with tags, fused parts or gaps isoform P01116-2): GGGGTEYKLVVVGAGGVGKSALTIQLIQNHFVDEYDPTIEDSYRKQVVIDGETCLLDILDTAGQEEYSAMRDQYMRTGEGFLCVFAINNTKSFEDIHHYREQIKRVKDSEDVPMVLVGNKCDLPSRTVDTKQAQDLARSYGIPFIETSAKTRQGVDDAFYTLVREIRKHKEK
pIC50: −log10 of the molar value.

{"COMPOUND": "Cn1ccc2cc3[nH]ncc3c(-c3nccc4c3sc3nc(OC[C@@]56CCCN5C[C@H](F)C6)nc(N5CCOC[C@@](C)(O)C5)c34)c21", "STUDY_TARGET": "KRAS-WT (Homo sapiens)", "pIC50": 6.78}
{"COMPOUND": "CO[C@@H]1CN2CCC[C@@]2(COc2nc(N3CCOC[C@@](C)(O)C3)c3c(n2)sc2c(-c4c(C5CC5)c(Cl)cc5[nH]ncc45)nccc23)C1", "STUDY_TARGET": "KRAS-WT (Homo sapiens)", "pIC50": 7.28}
{"COMPOUND": "C#CC1=CCCc2cc3[nH]ncc3c(-c3nccc4c3sc3nc(OC[C@@]56CCCN5C[C@H](F)C6)nc(N5CCOC[C@@](C)(O)C5)c34)c21", "STUDY_TARGET": "KRAS-WT (Homo sapiens)", "pIC50": 7.42}
{"COMPOUND": "Cc1cc2[nH]ncc2c(-c2nccc3c2sc2nc(OC[C@@]45CCCN4C[C@H](F)C5)nc(N4CCOCC(O)(CF)C4)c23)c1C(F)(F)F (stereo partly drawn)", "STUDY_TARGET": "KRAS-WT (Homo sapiens)", "pIC50": 6.53}
{"COMPOUND": "Cc1cc2[nH]ncc2c(-c2nccc3c2sc2nc(OC[C@@]45CCCN4C[C@H](F)C5)nc(N4CCOC[C@@](C)(O)C4)c23)c1C1CCCC1", "STUDY_TARGET": "KRAS-WT (Homo sapiens)", "pIC50": 6.17}
{"COMPOUND": "C[C@@]1(O)COCCN(c2nc(OC[C@@]34CCCN3C/C(=C\\F)C4)nc3sc4c(-c5c(C6(F)CC6)c(Cl)cc6[nH]ncc56)nccc4c23)C1", "STUDY_TARGET": "KRAS-WT (Homo sapiens)", "pIC50": 8.25}

* * *

biological target: KRAS-G12V (Homo sapiens, UniProt P01116, G12V); assay: SOS-catalyzed nucleotide exchange assay (Procedure A, TR-FRET), KRAS-G12V; type: biochemical; conditions: nucleotide exchange, read-out: KRAS G12V GNE IC50
Sequence (P01116 with tags, fused parts or gaps isoform P01116-2 G12V): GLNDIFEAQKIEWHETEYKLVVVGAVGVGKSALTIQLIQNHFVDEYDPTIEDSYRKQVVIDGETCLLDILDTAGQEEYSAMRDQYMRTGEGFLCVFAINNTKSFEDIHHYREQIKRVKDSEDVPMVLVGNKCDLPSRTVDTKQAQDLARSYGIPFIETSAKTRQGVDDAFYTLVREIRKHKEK
Lab note: cut-off is 70 nM. Strictly less in IC50 is t. Exactly 70 nM or more is f.

{"COMPOUND": "C=C1CN2C[C@H](F)C[C@@]2(COc2nc(N3CCOC[C@@](C)(O)C3)c3c(n2)sc2c(-c4c(C5CC5)c(Cl)cc5[nH]ncc45)nccc23)C1", "STUDY_TARGET": "KRAS-G12V (Homo sapiens, UniProt P01116, G12V)", "LABEL": "t"}
{"COMPOUND": "C=Cc1c(C)cc2[nH]ncc2c1-c1nccc2c1sc1nc(OC[C@@]34CCCN3C[C@H](F)C4)nc(N3CCOC[C@@](C)(O)C3)c12", "STUDY_TARGET": "KRAS-G12V (Homo sapiens, UniProt P01116, G12V)", "LABEL": "f"}
{"COMPOUND": "CN(C)C[C@@]1(COc2nc(N3CCOC[C@@](C)(O)C3)c3c(n2)sc2c(-c4c(C5CC5)c(C(F)(F)F)cc5[nH]ncc45)nccc23)CC1(F)F", "STUDY_TARGET": "KRAS-G12V (Homo sapiens, UniProt P01116, G12V)", "LABEL": "t"}
{"COMPOUND": "C#Cc1c(F)ccc2cc(N)nc(-c3nccc4c5c(N6CCOC[C@@](C)(O)C6)nc(OC[C@@]67CCCN6C[C@H](F)C7)nc5n(C)c34)c12", "STUDY_TARGET": "KRAS-G12V (Homo sapiens, UniProt P01116, G12V)", "LABEL": "f"}
{"COMPOUND": "C[C@H]1C[C@@H](COc2nc(N3CCOC[C@@](C)(O)C3)c3c(n2)sc2c(-c4c(C5CC5)c(C(F)(F)F)cc5[nH]ncc45)nccc23)N(C)C1", "STUDY_TARGET": "KRAS-G12V (Homo sapiens, UniProt P01116, G12V)", "LABEL": "t"}
{"COMPOUND": "C[C@@]1(O)COCCN(c2nc(OC[C@@]34CCCN3C[C@H](F)C4)nc3sc4c(-c5c6c(cc7[nH]ncc57)CCC6C(F)(F)F)nccc4c23)C1 (stereo partly drawn)", "STUDY_TARGET": "KRAS-G12V (Homo sapiens, UniProt P01116, G12V)", "LABEL": "f"}
